# System: corn
# Procedure Summary: Test B pre/postemergence corn
# Assay type: in vivo, Zea mays
# Details: Preemergence, Rate 250 g/ha; scale of 0 to 10 where 0 is no effect and 10 is complete control
Metric Name: Plant response rating, Corn

{"columns": ["Compound", "Endpoint Value"],
 "data": [
  ["Cc1cccc(C)c1-n1c(=O)on(C(=O)N(c2ccc(F)cc2)C(C)C)c1=O [Compound 18]", 0],
  ["COc1cccc(C)c1-n1c(=O)on(C(=O)N(c2ccc(F)cc2F)C(C)C)c1=O [Compound 74]", 0],
  ["C=CCn1c(=O)on(C(=O)N(c2ccc(Cl)cc2)C(C)C)c1=O [Compound 105]", 2],
  ["Cc1cccc(Cl)c1-n1c(=O)on(C(=O)N(c2ccc(Cl)cc2)C(C)C)c1=O [Compound 54]", 0]
]}

---

# System: rape
# Procedure Summary: Test B pre/postemergence rape
# Assay type: in vivo, Brassica napus
# Details: Preemergence, Rate 125 g/ha; scale 0 to 10 (0 no effect, 10 complete control)
Listed compounds paired with reported Plant response rating, Rape
Metric Name: Plant response rating, Rape

{"columns": ["Compound Structure String", "Metric Name", "Endpoint Value"],
 "data": [
  ["Cc1ccccc1-n1c(=O)on(C(=O)N(c2cc(F)cc(F)c2)C(C)C)c1=O", "Plant response rating, Rape", 0],
  ["CCN(CC)C(=O)n1oc(=O)n(Cc2cccs2)c1=O", "Plant response rating, Rape", 0],
  ["CCCn1c(=O)on(C(=O)N(c2ccc(F)cc2)C(C)C)c1=O", "Plant response rating, Rape", 8],
  ["Cc1nn(C)c(Cl)c1-n1c(=O)on(C(=O)N(c2ccccc2)C(C)C)c1=O", "Plant response rating, Rape", 0]
]}

---

# System: sugar beet
# Procedure Summary: Test B pre/postemergence sugar beet
# Format: in vivo, Beta vulgaris
# Details: Preemergence, Rate 62 g/ha; scale of 0 to 10 where 0 is no effect and 10 is complete control
# Protocol: […] At the same time, these crop and weed species were also treated with postemergence applications of test chemicals formulated in the same manner. […] Treated plants and controls were maintained in a greenhouse for twelve to sixteen days, after which all species were compared to controls and visually evaluated. […]
Metric Name: Sugarbeets plant response rating

{"columns": ["Compound", "Metric Name", "Endpoint Value"],
 "data": [
  ["COc1nc(OC)nc(N(C(=O)n2oc(=O)n(-c3ccccc3C)c2=O)C(C)C)n1", "Sugarbeets plant response rating", 0],
  ["CC(C)N(C(=O)n1oc(=O)n(CCC2OCCCO2)c1=O)c1ccc(F)cc1", "Sugarbeets plant response rating", 0],
  ["C#CC(C)n1c(=O)on(C(=O)N(c2ccc(F)cc2F)C(C)C)c1=O (racemic)", "Sugarbeets plant response rating", 7],
  ["CC(C)N(C(=O)n1oc(=O)n(CC2CCCCO2)c1=O)c1ccc(Cl)cc1 (stereo not shown)", "Sugarbeets plant response rating", 0]
]}

---

Listed compounds paired with reported Plant response rating, Wild oats
# Test system: wild oat
# Procedure Summary: Test B pre/postemergence wild oat
# Format: in vivo, Avena fatua
# Details: Postemergence, Rate 125 g/ha; scale of 0 to 10 where 0 is no effect and 10 is complete control

{"columns": ["Compound", "Plant response rating, Wild oats"],
 "data": [
  ["COCCn1c(=O)on(C(=O)N(c2ccc(F)cc2)C(C)C)c1=O", 2],
  ["CC(C)N(C(=O)n1oc(=O)n(CC2CCC2)c1=O)c1ccccc1", 0],
  ["CCC(C)n1c(=O)on(C(=O)N(c2ccccc2)C(C)C)c1=O (centres unmarked) [Compound 611]", 2],
  ["CC(C)N(C(=O)n1oc(=O)n(CC[N+](=O)[O-])c1=O)c1ccc(F)cc1F", 0],
  ["CC(C)N(C(=O)n1oc(=O)n(C(CF)CF)c1=O)c1ccc(F)cc1F", 0],
  ["C=C(Cn1c(=O)on(C(=O)N(c2ccccc2)C(C)C)c1=O)c1cccc(Cl)n1", 1],
  ["CC(C)N(C(=O)n1oc(=O)n(CC(=O)N(C)C)c1=O)c1ccccc1", 0],
  ["CCC(C)n1c(=O)on(C(=O)N(c2ccccc2)C(C)C)c1=O (centres unmarked) [Compound 610]", 3]
]}

---

# System: wild oat
# Procedure Summary: Test B pre/postemergence wild oat
# Format: in vivo, Avena fatua
# Details: Preemergence, Rate 250 g/ha; scale 0 to 10, 0 is no effect, 10 is complete control
Listed compounds paired with reported Wild oats plant response rating

{"columns": ["Compound Structure String", "Target Or Test System", "Wild oats plant response rating"],
 "data": [
  ["CC(C)N(C(=O)n1oc(=O)n(Cc2ccco2)c1=O)c1ccc(F)cc1F", "wild oat", 0],
  ["CC(C)N(C(=O)n1oc(=O)n(C(C)C)c1=O)c1ccc(F)cc1", "wild oat", 10],
  ["CC(=O)NCn1c(=O)on(C(=O)N(c2ccc(F)cc2)C(C)C)c1=O", "wild oat", 0],
  ["COc1nc(OC)nc(N(C(=O)n2oc(=O)n(-c3ccccc3C)c2=O)C(C)C)n1", "wild oat", 0]
]}

---

# System: wild oat
# Procedure Summary: Test B pre/postemergence wild oat
# Format: in vivo, Avena fatua
# Details: Rate 125 g/ha, Postemergence; scale of 0 to 10 where 0 is no effect and 10 is complete control
Metric Name: Wild oats plant response rating

{"columns": ["Compound", "Endpoint Value"],
 "data": [
  ["CC(C)n1c(=O)on(C(=O)N(c2ccc(Cl)cc2Cl)C2CCC2)c1=O", 0],
  ["CC(C)N(C(=O)n1oc(=O)n(C2CCOCC2)c1=O)c1ccc(F)cc1", 3],
  ["CC(C)N(C(=O)n1oc(=O)n(CC(C)(C)C)c1=O)c1ccc(F)cc1F", 0],
  ["CCOC(=O)C(C)N(C(=O)n1oc(=O)n(C2CCCCC2)c1=O)c1ccc(F)cc1 (stereo not shown)", 0]
]}

---

Listed compounds paired with reported Sugarbeets plant response rating
# System: sugar beet
# Procedure Summary: Test B pre/postemergence sugar beet
# Type: in vivo, Beta vulgaris
# Details: Postemergence, Rate 125 g/ha; scale of 0 to 10 where 0 is no effect and 10 is complete control

{"columns": ["Compound", "Sugarbeets plant response rating"],
 "data": [
  ["CC(C)N(C(=O)n1oc(=O)n(C(C)C)c1=O)c1ccc(Cl)cc1", 3],
  ["C#CC(C)n1c(=O)on(C(=O)N(c2ccc(Cl)cc2)C(C)C)c1=O (racemic)", 0],
  ["CC(C)N(C(=O)n1oc(=O)n(CC2CCCCO2)c1=O)c1ccccc1 (stereo not drawn)", 0],
  ["CC[C@H](C)n1c(=O)on(C(=O)N(c2ccc(F)cc2F)C(C)C)c1=O", 0],
  ["CC(C)N(C(=O)n1oc(=O)n(C[C@H](C)Cl)c1=O)c1ccccc1", 0],
  ["C=CCn1c(=O)on(C(=O)N(c2ccc(F)cc2F)C(C)C)c1=O", 3]
]}

---

# Test system: rape
# Procedure Summary: Test B pre/postemergence rape
# Format: in vivo, Brassica napus
# Details: Rate 500 g/ha, Postemergence; scale 0 to 10, 0 no effect, 10 complete control
# Method: […] At the same time, these crop and weed species were also treated with postemergence applications of test chemicals formulated in the same manner. […] Treated plants and controls were maintained in a greenhouse for twelve to sixteen days, after which all species were compared to controls and visually evaluated. […]
Listed compounds paired with reported Plant response rating, Rape

{"columns": ["Compound", "Target Or Test System", "Plant response rating, Rape"],
 "data": [
  ["CCOC(=O)C(C)N(C(=O)n1oc(=O)n(-c2c(C)cccc2OC)c1=O)c1ccc(F)cc1 (centres unmarked) [Compound 331]", "rape", 0],
  ["Cc1nnsc1Cn1c(=O)on(C(=O)N(c2ccccc2)C(C)C)c1=O [Compound 378]", "rape", 3],
  ["CC(C)N(C(=O)n1oc(=O)n(-c2ccc3ccccc3c2)c1=O)c1ccc(Cl)cc1 [Compound 333]", "rape", 0],
  ["CC(C)N(C(=O)n1oc(=O)n(-c2ccc3ccccc3c2)c1=O)c1ccc(F)cc1 [Compound 329]", "rape", 0],
  ["Cc1nnsc1Cn1c(=O)on(C(=O)N(c2ccc(F)cc2)C(C)C)c1=O [Compound 380]", "rape", 0]
]}

---

# Tested on: velvetleaf
# Procedure Summary: Test B pre/postemergence velvetleaf
# Assay type: in vivo, Abutilon theophrasti
# Details: Preemergence, Rate 125 g/ha; scale of 0 to 10 where 0 is no effect and 10 is complete control
Metric Name: Velvetleaf plant response rating

{"columns": ["Compound", "Metric Name", "Endpoint Value"],
 "data": [
  ["CC(C)N(C(=O)n1oc(=O)n(C(CF)CF)c1=O)c1ccc(F)cc1F [Compound 595]", "Velvetleaf plant response rating", 7],
  ["CCC=CCn1c(=O)on(C(=O)N(c2ccccc2)C(C)C)c1=O [Compound 582]", "Velvetleaf plant response rating", 0],
  ["C=C(Cl)Cn1c(=O)on(C(=O)N(c2ccc(F)cc2F)C(C)C)c1=O [Compound 634]", "Velvetleaf plant response rating", 0],
  ["C=C(Cc1ccccc1)Cn1c(=O)on(C(=O)N(c2ccccc2)C(C)C)c1=O [Compound 650]", "Velvetleaf plant response rating", 0],
  ["CCC(C)n1c(=O)on(C(=O)N(c2ccccc2)C(C)C)c1=O (stereo not drawn) [Compound 610]", "Velvetleaf plant response rating", 7],
  ["CC(C)N(C(=O)n1oc(=O)n(CNC(=O)c2ccccc2)c1=O)c1ccccc1 [Compound 620]", "Velvetleaf plant response rating", 0],
  ["CCOP(=O)(Cn1c(=O)on(C(=O)N(c2ccc(Cl)cc2)C(C)C)c1=O)OCC [Compound 599]", "Velvetleaf plant response rating", 0],
  ["CC(C)N(C(=O)n1oc(=O)n(CSC#N)c1=O)c1ccc(F)cc1 [Compound 618]", "Velvetleaf plant response rating", 0],
  ["C#CC=CC(C)(C)n1c(=O)on(C(=O)N(c2ccccc2)C(C)C)c1=O [Compound 655]", "Velvetleaf plant response rating", 0]
]}

The measurements presented in this section are drawn from patent US6737383B1.
